Assay: chemical genetic growth profiling, strain panel (AID 1159580);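 note: tested at 20 µM; growth read once vehicle control cultures reached saturation at 30 °C; 1 = growth at the plate median or of vehicle wells; lower values mean less growth of the strain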
Conditions: S. cerevisiae deletion strains, growth OD, locus YER167W, strain BCK2, hits give low values
Hit rate of the full screen: of about 5,500 compounds, about 2,000 (36%) were called active. Inconclusive results (about 18%) are left out. This is one part of the list.
readout.label: normalized growth
One number for each entry.

# compound, reported.result
measured = [
    ("CC(C)C(C)/C=C/C(C)C1CCC2C3=CC=C4CC(O)CCC4(C)C3CCC21C (stereo not given)", 1.01),
    ("COC(=O)C[C@H]1C(C)(C)C(=O)[C@@H]2CC3=C(CC[C@]4(C)C3=CC(=O)O[C@H]4c3ccoc3)[C@@]1(C)C2=O", 1.01),
    ("CC(C)C(C)/C=C/C(C)[C@H]1CCC2C3=CCC4CC(=O)CC[C@]4(C)C3CC[C@@]21C (stereo not given in full)", 1.03),
]

Kindly give each listed record's normalized growth.
1. NC(N)=NS(=O)(=O)c1ccc(N)cc1
2. C=C1C(=O)O[C@@H]2C[C@@]3(C)CCC[C@H](C)C3=C[C@H]12

Solution:
1
0.906

* * *

Test: chemical genetic growth profiling, strain panel (AID 1159580);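 note: tested at 20 µM; growth read once vehicle control cultures reached saturation at 30 °C; 1 = growth at the plate median or of vehicle wells; lower values mean less growth of the strain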
Details: S. cerevisiae deletion strains, growth OD, locus YPR135W, strain CTF4, hits give low values
Out of some 5,500 compounds screened, about 2,000 (36%) were called active. Another 18% or so got no clear call; they are omitted. The list shows a part of the results.
readout.label: normalized growth
Answers are plain numbers.

# query.smiles, normalized growth
rows = [
    ("COc1ccccc1N=C(N)SCc1ccccc1", 0.962),
    ("O=C1CCC(c2cccs2)=NN1", 0.901),
]

Please turn your attention to the following entry.
Looking up `CC(=O)c1ccc(-c2cccs2)s1` , I see its normalized growth listed as 0.69

* * *

Test: chemical genetic growth profiling, strain panel (AID 1159580);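 note: tested at 20 µM; growth read once vehicle control cultures reached saturation at 30 °C; 1 = growth at the plate median or of vehicle wells; lower values mean less growth of the strain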
Settings: S. cerevisiae deletion strains, growth OD, locus YDL028C, strain MPS1
Out of some 5,500 compounds screened, about 2,000 (36%) were called active. Not shown: some 18% with an inconclusive outcome. Rule as the data show it: active = normalized growth mostly below about 0.91 (no sharp cut-off); inconclusive = no clear call, values can overlap the other calls; inactive = mostly above about 0.92. This is one part of the list.
Entry note: the call must match one of active, inactive

The following compounds have reported results that may help.
# compound, class.name
rows = [
    ("Cc1onc(-c2c(Cl)cccc2Cl)c1C(=O)NC(C)(C)CC(C)(C)C", "inactive"),
    ("O=C(NNc1ccc(I)cc1)c1cc(Cl)cc(Cl)c1", "inactive"),
    ("CC(=O)Nc1ccc(S(=O)(=O)Nc2ccccc2Oc2ccc(Cl)cc2Cl)cc1", "inactive"),
]

Exercise: Which outcome was assigned to `Cc1onc(-c2c(F)cccc2Cl)c1C(=O)ON=C1C2CC3CC(C2)CC1C3` in this test?
Solution: active

Exercise: Identify the outcome logged in this assay for the compound shown: `Cc1ccc(NC(=O)c2ccccc2N=Cc2cc(Cl)cc(Cl)c2O)c(N=Cc2cc(Cl)cc(Cl)c2O)c1`
Solution: inactive

Exercise: Hi, sorry to bother you, what did the test record for `CC1(C)OC(=O)C(=Cc2cccn2-c2ccc(OC(F)(F)F)cc2)C(=O)O1` ?
Solution: inactive

Exercise: Which outcome did this test record for the compound `OC(=Cc1nc2ccccc2nc1C=C(O)c1ccc(Cl)cc1)c1ccc(Cl)cc1` ?
Solution: inactive

* * *

Test: chemical genetic growth profiling, strain panel (AID 1159580);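 note: tested at 20 µM; growth read once vehicle control cultures reached saturation at 30 °C; 1 = growth at the plate median or of vehicle wells; lower values mean less growth of the strain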
Conditions: S. cerevisiae deletion strains, growth OD, locus YDR297W, strain sur2, hits give low values
Structures can show the parent of a compound that is named as a salt. In all, about 5,500 compounds went through this assay and about 2,000 (36%) were called active. Inconclusive results (about 18%) are left out. This is one part of the list. Where a SMILES comes first, the peptide text is derived from it. The star is where a group is joined. Tfa = O=C(C(F)(F)F)*
Record form. Attribute: normalized growth. Fill in for each entry.

These recorded examples may help you get a feel for the data.
# compound, normalized growth
records = [
    ("OCc1ccccc1O", "1.02 (inactive)"),
    ("CCOC(=O)[C@H](CCc1ccccc1)N[C@@H](C)C(=O)N1[C@H](C(=O)O)C[C@@H]2CCC[C@@H]21", "0.981 (inactive)"),
    ("COC(=O)C(C)c1ccc(C(=O)c2cccs2)cc1 (configuration not stated)", "1.01 (inactive)"),
    ("O=C(Cn1ccnc1[N+](=O)[O-])NCCO", "1.01 (inactive)"),
    ("C[C@@H]1C(=O)OC2[C@H](O)C34[C@@H]5OC(=O)[C@@]3(O[C@@H]3OC(=O)[C@H](O)[C@@]34[C@H](C(C)(C)C)[C@H]5O)[C@]21O (some centres not stated)", "0.97 (inactive)"),
]

Hello, I would appreciate it if you could give normalized growth for each entry below.
1. O=C1C=C2C=C[C@@H]3C[C@@]2(O1)[C@H]1CCCCN31
2. Cc1ccc(Cl)c(Nc2ccccc2C(=O)O)c1Cl
3. O=C1CC2OCC=C3CN4CC[C@]56c7ccccc7N1C5[C@H]2[C@H]3CC46 (some centres not stated)
4. Nc1ccc(N=Nc2ccccc2)c(N)n1
5. CC(C)(C)CC(C)(C)c1ccc(O)c(Cc2ccc(Cl)cc2Cl)c1
6. O=C(O)CN(CC(=O)O)Cc1cc2c(-c3ccccc3C(=O)O)c3cc(CN(CC(=O)O)CC(=O)O)c(=O)cc-3oc2cc1O

Solution:
["0.994 (inactive)", "0.908 (active)", "1.02 (inactive)", "0.828 (active)", "1.01 (inactive)", "0.951 (inactive)"]

Please give normalized growth for each item listed below.
1. O=S1OCC2C(CO1)C1(Cl)C(Cl)=C(Cl)C2(Cl)C1(Cl)Cl (configuration not stated)
2. COC(=O)[C@@H]1OC(=O)[C@H]2O[C@@]23[C@@]1(C)CCC1[C@@]2(C)CCC(=O)C(C)(C)C2C[C@@H](OC(C)=O)[C@]13C (some centres not stated)
3. COc1c(OC)c2occc2c2oc(=O)ccc12
4. CC(=O)Oc1c(C)cccc1C(=O)O
5. Oc1ccc(Cl)cc1Cc1cc(Cl)ccc1O
6. CC1C[C@H]2CC(=O)[C@H]3CCCN4CCC[C@H]2[C@]34C1 (some centres not stated)
7. NC(CO)C(=O)NNCc1ccc(O)c(O)c1O (configuration not stated)

Solution:
1. 0.983 (inactive)
2. 1 (inactive)
3. 0.974 (inactive)
4. 0.987 (inactive)
5. 0.0586 (active)
6. 1 (inactive)
7. 0.994 (inactive)

For each entry beneath this line, provide reported normalized growth.
1. CCCC(=O)O[C@]1(C(=O)CO)CCC2[C@@H]3CCC4=CC(=O)CC[C@]4(C)C3[C@@H](O)C[C@@]21C (some centres not stated)
2. CCC(C)(C)C(=O)O[C@H]1C[C@@H](C)C=C2C=C[C@H](C)[C@H](CC[C@@H]3C[C@@H](O)CC(=O)O3)[C@H]21
3. CC1(C)O[C@H]2[C@H](O)C[C@](O)(C(N)=O)C[C@H]2O1
4. CO/N=C(\C(=O)NC1C(=O)N2C(C(=O)O)=C(COC(N)=O)CSC12)c1ccco1 (configuration not stated)

Solution:
1: 1.01 (inactive); 2: 0.999 (inactive); 3: 1.01 (inactive); 4: 0.972 (inactive)

Would you mind listing normalized growth for each of the following compounds?
1. CC(C)C(NC(=O)C(Cc1ccc(O)cc1)NC(=O)C(NC(=O)C(F)(F)F)C(C)C)C(=O)O (stereo not drawn) (Tfa-Val-Tyr-Val-OH; configuration not given here)
2. COC(=O)C[C@H]1C(C)(C)C(=O)[C@@H]2CC3=C(CC[C@]4(C)C3=CC(=O)O[C@H]4c3ccoc3)[C@@]1(C)C2=O
3. CC[C@H](C)C(=O)O[C@H]1CCC=C2C=C[C@H](C)C(CCC3C[C@@H](O)CC(=O)O3)[C@H]21 (some centres not stated)
4. O=C1[C@H](CCC(O)c2ccc(F)cc2)[C@@H](c2ccc(O)cc2)N1c1ccc(F)cc1 (some centres not stated)
5. C=CCSCC1Nc2cc(Cl)c(S(N)(=O)=O)cc2S(=O)(=O)N1 (configuration not stated)
6. CC(C)C(=O)Nc1ccc([N+](=O)[O-])c(C(F)(F)F)c1
7. CC1=CC2C(CC1=O)C(C)=CCC2C(C)C (configuration not stated)
8. O=C(C1CCCCC1)N1CC(=O)N2CCc3ccccc3C2C1 (configuration not stated)

Solution:
["0.985 (inactive)", "0.977 (inactive)", "1 (inactive)", "0.988 (inactive)", "1 (inactive)", "1.01 (inactive)", "1.02 (inactive)", "1.01 (inactive)"]

Fill in normalized growth for each of the 2 compounds listed.
1. C=C1CCC2C(CC2(C)C)C(=O)CCC1O (configuration not stated)
2. Cc1cccc(C)c1NC1=NCCCS1

Solution:
1.01 (inactive)
1.01 (inactive)

Each compound below has a reported value. Please supply its normalized growth.
1. COC(=O)C1=CCCN(C)C1
2. Cc1c(S(=O)(=O)O)oc2c1C(=O)C(=O)c1c-2ccc2c1CCCC2(C)C
3. CO/N=C(\C(=O)NC1C(=O)N2C(C(=O)OC(C)OC(C)=O)=C(COC(N)=O)CSC12)c1ccco1 (configuration not stated)
4. COC(=O)C(O)c1ccccc1 (configuration not stated)
5. NC(N)=NS(=O)(=O)c1ccc(N)cc1
6. Cc1ccc(C)c(OCCCC(C)(C)C(=O)O)c1
7. C=C1CCC(C2CC(=O)OC2=O)C(=O)CCC2C1CC2(C)C (configuration not stated)

Solution:
["1 (inactive)", "0.939 (inactive)", "1 (inactive)", "0.992 (inactive)", "0.984 (inactive)", "0.992 (inactive)", "1 (inactive)"]

I would be grateful if you could provide normalized growth for each of the following entries.
1. C=C1CCC2C(CC2(C)C)C(=C)CC/C1=N\O (configuration not stated)
2. Cc1c(Cl)cccc1Nc1ccccc1C(=O)O
3. Cn1c(=O)c2[nH]cnc2n(C)c1=O

Solution:
1. 1.01 (inactive)
2. 0.835 (active)
3. 1.03 (inactive)
